Data origin, for the record: patent US20220380463A1

- testedOn: cynomolgus CD3εδ Fc heterodimer (Cy CD3ε Fc / CD3δ Fc-HIS) (cynomolgus) (UniProt Q95LI8)
- Sequence (chain, as listed by the source mutant, chain 1 of 2): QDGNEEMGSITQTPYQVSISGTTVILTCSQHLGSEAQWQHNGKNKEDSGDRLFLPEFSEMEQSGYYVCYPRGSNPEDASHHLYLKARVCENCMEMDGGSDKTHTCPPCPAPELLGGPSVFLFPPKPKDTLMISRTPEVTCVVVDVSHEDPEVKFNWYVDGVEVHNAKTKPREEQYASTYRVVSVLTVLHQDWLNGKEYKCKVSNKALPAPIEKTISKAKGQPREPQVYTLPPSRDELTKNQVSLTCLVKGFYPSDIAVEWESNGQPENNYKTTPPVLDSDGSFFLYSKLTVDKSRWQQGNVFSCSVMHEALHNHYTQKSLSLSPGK
- Sequence (Q95LI8 22-100, stated change not applied, chain 2 of 2): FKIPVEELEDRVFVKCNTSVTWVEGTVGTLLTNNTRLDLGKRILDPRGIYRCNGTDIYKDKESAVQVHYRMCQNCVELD
- assayExplanation: BLI (ForteBio), pH 6.0
outcomeMeasure: Kd (nM)
Supply the numeric figure in nM, leaving out any unit text.

Incoming: Data request, read-out Kd, for SAD10320_P04_A12 (antibody, V domains shown) VH: QVQLVQSGAEVKKPGASVKVSCKASGFNIKDYYMHWVRQAPGQRLEWMGWIDLENANTIYDAKFQGRVTITRDTSASTAYMELSSLRSEDTAVYYCARDAYGHVFYDVWGQGTLVTVSS VL: DIVMTQSPDSLAVSLGERATINCKSSQSLLNARTGKNYLAWYQQKPGQPPKLLIYWASTRESGVPDRFSGSGSGTDFTLTISSLQAEDVAVYYCKQSYHHRTFGGGTKVEIK
Outgoing: 240
